molecular target: NAMPT (Homo sapiens, UniProt P43490); construct: His tag; host or cells: E. coli; test: Biochemical inhibition assay: NAMPT enzymatic reaction, NMN quantified by mass spectrometry; conditions: Biochem IC50 uM
Sequence (P43490 whole entry): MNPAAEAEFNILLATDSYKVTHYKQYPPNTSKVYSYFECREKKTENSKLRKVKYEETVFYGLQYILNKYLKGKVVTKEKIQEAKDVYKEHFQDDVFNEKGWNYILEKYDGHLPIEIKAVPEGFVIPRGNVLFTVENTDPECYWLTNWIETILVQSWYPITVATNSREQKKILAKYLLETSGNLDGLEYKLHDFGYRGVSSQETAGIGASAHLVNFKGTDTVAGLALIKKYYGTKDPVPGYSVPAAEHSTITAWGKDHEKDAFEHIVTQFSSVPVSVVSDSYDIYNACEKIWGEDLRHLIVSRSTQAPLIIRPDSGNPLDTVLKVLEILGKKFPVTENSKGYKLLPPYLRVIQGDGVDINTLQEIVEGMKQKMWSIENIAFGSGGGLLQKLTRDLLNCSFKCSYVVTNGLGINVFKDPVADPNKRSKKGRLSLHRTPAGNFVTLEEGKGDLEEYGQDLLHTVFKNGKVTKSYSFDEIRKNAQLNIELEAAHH
property-name: IC50 (µM)

given-smiles	output-unit	data-value
Cc1c(Cl)cccc1S(=O)(=O)c1ccc(CNC(=O)c2cc3ccncc3s2)cc1	µM	0.0572
O=C(NCc1ccc(S(=O)(=O)c2ccc(N3CCOCC3)nc2)cc1)c1cc2ccncc2s1	µM	0.0041

---

target: NAMPT (Homo sapiens); construct: His tag; host or cells: E. coli; assay: Biochemical inhibition assay: NAMPT enzymatic reaction, NMN quantified by mass spectrometry; details: NAMPT enzymatic assay; read-out: Biochem IC50
Below, each entry is listed alongside its reported IC50.

given-smiles	comparison-sign	IC50 (nM)
Cc1ccc(S(=O)(=O)c2ccc(CNC(=O)c3cnc4[nH]ncc4c3)cc2)cn1	=	24.1
O=C(NCc1ccc(S(=O)(=O)c2cccc(C(F)(F)F)c2)cc1)c1cnc2nccn2c1	=	2.7
O=C(NCc1ccc(S(=O)(=O)c2cc(F)ccc2CO)cc1)c1ccc2nccn2c1	=	10.4
CC(C)CNC(=O)c1cccc(S(=O)(=O)c2ccc(CNC(=O)c3cc4cnccc4[nH]3)cc2)c1	=	19.3
O=C(NCc1ccc(S(=O)(=O)c2ccc(-n3ccnc3)cc2)cc1)c1cnc2nccn2c1	<	0.65
O=C(NCc1ccc(S(=O)(=O)c2ccc(F)c(C(F)(F)F)c2)cc1)c1cc2ccncc2s1	=	4
COc1ccc(OC)c(S(=O)(=O)c2ccc(CNC(=O)c3cc4ccncc4s3)cc2)c1	=	4
Cc1nc(C)c(S(=O)(=O)c2ccc(CNC(=O)c3cnc4nccn4c3)cc2)s1	=	3.7
O=C(NCc1ccc(S(=O)(=O)c2cncc(F)c2)cc1)c1cnc2[nH]ncc2c1	=	79.2

This collection of values is drawn from patent US12336981B2.
